Recorded values, source PubChem BioAssay AID1918941.

Listed here are molecules together with their documented viability, T/C.
tested on: SW 1271 complex spheroids, viability; test: Anticancer human tumor SW 1271 cell line growth inhibition [LSD1]; details: second compound 1 µM; first compound 0.01 µM; stronger effect = lower value;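 further: spheroids exposed to agents for 7 days before luminescence read; 100% = DMSO vehicle control viability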
Please reply with the bare figure in % and do not write the unit itself.

Some entries whose results are on file:
Form: molecule = Nc1ncn(C2CC(O)C(CO)O2)c(=O)n1 (stereo not given) + NC1CCC(NC2CC2c2ccccc2)CC1 ; viability, T/C = 81.2

Form: molecule = CC[C@@]1(O)C(=O)OCc2c1cc1n(c2=O)Cc2cc3c(CN(C)C)c(O)ccc3nc2-1 + NC1CCC(NC2CC2c2ccccc2)CC1 ; viability, T/C = 66.7

Form: molecule = CC(C)CC(NC(=O)CNC(=O)c1cc(Cl)ccc1Cl)B1OC(=O)CC(CC(=O)O)(C(=O)O)O1 (stereo not given) + NC1CC1c1ccc(-c2cccc(O)c2)cc1 ; viability, T/C = 4.77

Next:
Form: molecule = CC(C)CC(NC(=O)C(Cc1ccccc1)NC(=O)c1cnccn1)B(O)O (stereo not given) + NC1CCC(NC2CC2c2ccccc2)CC1 ; viability, T/C = 0.43

Form: molecule = O=C(C=Cn1cnc(-c2cc(C(F)(F)F)cc(C(F)(F)F)c2)n1)NNc1cnccn1 + NC1CCC(NC2CC2c2ccccc2)CC1 ; viability, T/C = 101
